We begin with a simple list: items and their reported koff.
- SYSTEM_NAME: T1, CMV gp116 epitope AD2 site peptide SHRANETIYNTTLKYGDTTGTNTTK (CMV (human cytomegalovirus), not fully specified)
- T1 construct: Synthetic polypeptide corresponding to the AD2 site of gp116 (glycoprotein B); A biotinylated form was used to select B cells; also called CMV gp116 AD2 peptide
- T1 peptide: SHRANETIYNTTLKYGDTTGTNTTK
- ASSAY_OVERVIEW: kinetic affinity measurement, method not stated; antigen taken as CMV gp116 AD2 peptide
REPORTED_PROPERTY: koff (s⁻¹)

BINDER: 2F10 human anti-CMV antibody (antibody, V domains shown, Recombinant human IgG, gamma heavy and kappa light chain, made by transient transfection of 293 cells; also called mAb A-2F10) VH: QVHLVESGGGVVQPGRALRLSCAATGFTFSNHGIHWVRQAPGKGLEWLAVISSDGDDDRYADSVKGRFSVSRDNSKNTVHLQMNGLRPDDTAIYFCARDGRCGEPKCYSGLPDYWGRGTLVTVSS VL: EIVLTQSPATLSLSPGDRATLSCRASQSVGGYLAWYQQKPGQAPRLLLYDASNRATGIPARFSGSGSGTDFTLTISSLEPEDFALYYCLQRNTWPPLTFGGGTKVEIKR
READOUT_UNIT: s⁻¹
RECORDED_RESULT: 0.00111
--
BINDER: 5P9 human anti-CMV antibody (antibody, V domains shown, Recombinant human IgG, gamma heavy and kappa light chain; also called mAb E-5P9) VH: QVQLVESGGGVIQPGRSLRLSCVASKFIFSNHGIHWVRQAPGKGLEWVAVISKDGTNAHYADSVRGRFSISRDNSKDTVFLEMRSLRPEDTAVYYCAREGRCIEEKCYSGQIDYWGQGSLVTVSS VL: EILLTQSPATLSLSPGERATLSCRASQSVGRYMAWYQQRPGQAPRLLIYDASIRATGIPARFSGSGSGTDFTLTISSLQTEDFAIYYCQQRSSWPPLTFGGGTKVEIKR
READOUT_UNIT: s⁻¹
RECORDED_RESULT: 0.00121
--
BINDER: 4P12 human anti-CMV antibody (antibody, V domains shown, Recombinant human IgG, gamma heavy and kappa light chain; also called mAb D-4P12) VH: QVQLVESGGGVIQPGRSLRLSCVASKFIFSNHGIHWVRQAPGKGLEWVAVISKDGTNAHYADSVRGRFSISRDNSKDTVFLEMRSLRPEDTAVYYCAREGRCIEENCYSGQIDYWGQGSLVTVSS VL: EILLTQSPATLSLSPGERATLSCRASQSVGRYMAWYQQRPGQAPRLLIYDASIRATGIPARFSGSGSGTDFTLTISSLQPEDFAIYYCQQRSSWPPLTFGGGTKVEIKR
READOUT_UNIT: s⁻¹
RECORDED_RESULT: 0.0019
--
BINDER: 2N9 human anti-CMV antibody (antibody, V domains shown, Recombinant human IgG, gamma heavy and kappa light chain; (MDMR); If the listing entry has two more residues, the range shifts by 2; also called TCN-202; mAb C-2N9) VH: QVQLVESGGGVVQPGRSLRLSCAASGFTFSSNGIHWVRQAPGKGLDWVAVISSDANDKQYADSVKGRFTISRDNSKNMVYLQMNSLRVEDTAVYFCARDGTCSGGNCYSGLIDYWGRGILVTVSS VL: EIVLTQSPATLSLSPGERATLSCRASQSVGGYLAWYQQKPGQAPRLLIYDASIRATGIPARFSGSGSGTDFTLTISSLEPEDFAVYYCHQRSNWPPLTFGGGTKVDIKR
READOUT_UNIT: s⁻¹
RECORDED_RESULT: 0.03

Each recorded value in this set is attributed to patent US20150152166A1.
